Just for reference, patent US10179913B2 is where these values come from.

# Test system: myopia-induced C57BL/6J mice
# test.description: Example 4: efficacy in myopia-induced mice, delta axial length
# Type: in vivo
# test.context: right (myopia) minus left eye, 1 μM, 30 μL to right eye on day 30, 37 and 44, eyes collected day 51
Marks after values point to notes of the source that are not given here. l = locked nucleic acid (LNA); d = 2'-deoxy (DNA)
assay.readout: Delta axial length, mm mean (SD)

Recorded Delta axial length, mm mean (SD) for 5′-+G*+G*+A*+A*G*G*G*C*A*G*A*G*A*G*G*+G*+C*+C*+A-3′ (antisense GGAAGGGCAGAGAGGGCCA; sugars from the 5' end l4 d11 l4, all phosphorothioate, methylation of C not given here) [LNA404, LNA-modified and PS bond-modified anti-sense miR-328 oligonucleotide, 19 mer] with myopia-induced C57BL/6J mice, please?
−0.007 (0.100) mm

Recorded Delta axial length, mm mean (SD) for 5′-+G*+A*+A*+G*G*G*C*A*G*A*G*A*G*G*+G*+C*+C*+A-3′ (antisense GAAGGGCAGAGAGGGCCA; sugars from the 5' end l4 d10 l4, all phosphorothioate, methylation of C not given here) [LNA405, LNA-modified and PS bond-modified anti-sense miR-328 oligonucleotide, 18 mer] with myopia-induced C57BL/6J mice, please?
−0.017 (0.054) mm

Recorded Delta axial length, mm mean (SD) for 5′-AAGGGCAGAGAGGGCCA-3′ (DNA, backbone not given here) [DNA 17mer, anti-sense miR-328 oligodeoxyribonucleotide] with myopia-induced C57BL/6J mice, please?
−0.047 (0.073)* mm

Recorded Delta axial length, mm mean (SD) for 5′-AGGGCAGAGAGGGCCA-3′ (DNA, backbone not given here) [DNA 16mer, anti-sense miR-328 oligodeoxyribonucleotide] with myopia-induced C57BL/6J mice, please?
−0.059 (0.061)* mm

Recorded Delta axial length, mm mean (SD) for 5′-+C*+G*+G*+A*A*G*G*G*C*A*G*A*G*A*G*G*+G*+C*+C*+A-3′ (antisense CGGAAGGGCAGAGAGGGCCA; sugars from the 5' end l4 d12 l4, all phosphorothioate, methylation of C not given here) [LNA403, LNA-modified and PS bond-modified anti-sense miR-328 oligonucleotide, 20 mer] with myopia-induced C57BL/6J mice, please?
−0.036 (0.079)* mm

---

# System: myopia-induced C57BL/6J mice
# test.description: Example 4: efficacy in myopia-induced mice, delta axial length
# Type: in vivo
# test.context: 1 μM on day 30, 37 and 44, versus saline
l = locked nucleic acid (LNA); d = 2'-deoxy (DNA)
Task for the reader: assign each of the following substances its reported reduction of delta axial length compared to control group.

Which value of reduction of delta axial length compared to control group has been reported for 5′-+G*+A*+A*+G*G*G*C*A*G*A*G*A*G*G*+G*+C*+C*+A-3′ (antisense GAAGGGCAGAGAGGGCCA; sugars from the 5' end l4 d10 l4, all phosphorothioate, methylation of C not given here) [LNA405, LNA-modified and PS bond-modified anti-sense miR-328 oligonucleotide, 18 mer] in the records?
0.035 mm

Which value of reduction of delta axial length compared to control group has been reported for 5′-AAGGGCAGAGAGGGCCA-3′ (DNA, backbone not given here) [DNA 17mer, anti-sense miR-328 oligodeoxyribonucleotide] in the records?
0.065 mm

Which value of reduction of delta axial length compared to control group has been reported for 5′-+C*+G*+G*+A*A*G*G*G*C*A*G*A*G*A*G*G*+G*+C*+C*+A-3′ (antisense CGGAAGGGCAGAGAGGGCCA; sugars from the 5' end l4 d12 l4, all phosphorothioate, methylation of C not given here) [LNA403, LNA-modified and PS bond-modified anti-sense miR-328 oligonucleotide, 20 mer] in the records?
0.054 mm

Which value of reduction of delta axial length compared to control group has been reported for 5′-AGGGCAGAGAGGGCCA-3′ (DNA, backbone not given here) [DNA 16mer, anti-sense miR-328 oligodeoxyribonucleotide] in the records?
0.077 mm

Which value of reduction of delta axial length compared to control group has been reported for 5′-+G*+G*+A*+A*G*G*G*C*A*G*A*G*A*G*G*+G*+C*+C*+A-3′ (antisense GGAAGGGCAGAGAGGGCCA; sugars from the 5' end l4 d11 l4, all phosphorothioate, methylation of C not given here) [LNA404, LNA-modified and PS bond-modified anti-sense miR-328 oligonucleotide, 19 mer] in the records?
0.025 mm
